- target.entity: Canine cardiac lipases
- experiment.summary: Myocardial lipase assay
- condition.context: triolein emulsion, Tris pH 6.8; read-out: Lipase I50
readout: IC50 (µM)
Express it in µM; write the number only.

In [3]: df
Out[3]:
                                   molecule  observed
0  COc1ccc(NC(=O)Oc2cccc3cccnc23)cc1 [No. 1, 8-Quinolyl-4-Methoxy Carbanilate]        17
1  COc1cccc(NC(=O)Oc2cccc3cccnc23)c1 [No. 3, 8-quinolyl-3-methoxy carbanilate]        18

Entry COc1ccccc1NC(=O)Oc1cccc2cccnc12 [No. 2, 8-quinolyl-2-methoxy carbanilate] ; IC50 = 40
